- TEST DETAILS: Cytotoxicity against HEL cells assessed as alteration of cell morphology by microscopic method
- Assay type: cell-based
- EXPERIMENTAL CONDITIONS: human
EXPERIMENTAL ENDPOINT: MCC

INSERT INTO results (compound, result) VALUES
  ('Nc1ccn(C[C@@H](CO)OCP(=O)(O)O)c(=O)n1', '> 300 µM'),
  ('CCCCCCCCCCCCCCCOCCCOP(=O)(O)C/C=C/Cn1cc(C)c(=O)[nH]c1=O', '184 µM'),
  ('CCCCCCCCCCCCCCCOCCCOP(=O)(C/C=C/Cn1cc(C)c(=O)[nH]c1=O)OCOC(=O)OC(C)C (stereo unspecified)', '30 µM'),
  ('Nc1nc2c(ncn2COCCO)c(=O)[nH]1', '> 440 µM'),
  ('Cc1cn(C/C=C/CP(=O)(OCOC(=O)C(C)(C)C)OCOC(=O)C(C)(C)C)c(=O)[nH]c1=O', '≥ 100 µM'),
  ('O=c1[nH]c(=O)n([C@H]2C[C@H](O)[C@@H](CO)O2)cc1/C=C/Br', '> 300 µM');

* * *

- System: Human alphaherpesvirus 1
- TEST DETAILS: Antiviral activity against thymidine kinase deficient acyclovir-resistant Human simplex virus 1 KOS infected in HEL cells assessed as reduction in viral cytopathic effect
- Type: functional, organism-based
- EXPERIMENTAL CONDITIONS: Human alphaherpesvirus 1, KOS
EXPERIMENTAL ENDPOINT: EC50 (µM)

INSERT INTO results (molecule, value_comparator, numeric_value) VALUES
  ('Nc1ccn(C[C@@H](CO)OCP(=O)(O)O)c(=O)n1 [CIDOFOVIR]', '=', 4.6),
  ('Nc1nc2c(ncn2COCCO)c(=O)[nH]1 [ACYCLOVIR]', '=', 94),
  ('CCCCCCCCCCCCCCCOCCCOP(=O)(C/C=C/Cn1cc(C)c(=O)[nH]c1=O)OCOC(=O)OC(C)C (centres undefined)', '>', 152),
  ('Cc1cn(C/C=C/CP(=O)(OCOC(=O)C(C)C)OCOC(=O)C(C)C)c(=O)[nH]c1=O', '=', 2.8);

* * *

- System: Human alphaherpesvirus 3
- TEST DETAILS: Antiviral activity against thymidine kinase deficient Varicella zoster virus 07/1 infected in HEL cells assessed as reduction in viral plaque formation
- Format: functional, organism-based
- EXPERIMENTAL CONDITIONS: Human alphaherpesvirus 3, 07/1, HEL
pEC50: −log10 of the molar value.
The label depends only on pEC50: fulfilled if it is at least 6, not fulfilled if it is smaller.

INSERT INTO results (compound, class_assignment) VALUES
  ('CCCCCCCCCCCCCCCOCCCOP(=O)(O)C/C=C/Cn1cc(C)c(=O)[nH]c1=O', 'not fulfilled'),
  ('Cc1cn(C/C=C/CP(=O)(OCOC(=O)C(C)(C)C)OCOC(=O)C(C)(C)C)c(=O)[nH]c1=O', 'fulfilled'),
  ('Cc1cn(C/C=C/CP(=O)(OCOC(=O)C(C)C)OCOC(=O)C(C)C)c(=O)[nH]c1=O', 'fulfilled'),
  ('O=c1[nH]c(=O)n([C@H]2C[C@H](O)[C@@H](CO)O2)cc1/C=C/Br', 'not fulfilled'),
  ('C[C@H](NP(=O)(C/C=C/Cn1cc(F)c(=O)[nH]c1=O)Oc1ccccc1)C(=O)OCc1ccccc1 (stereo partly drawn)', 'not fulfilled'),
  ('Cc1cn(C/C=C/C[P@](=O)(N[C@@H](C)C(=O)OCc2ccccc2)Oc2ccccc2)c(=O)[nH]c1=O', 'fulfilled'),
  ('C[C@H](NP(=O)(C/C=C/Cn1cc(Cl)c(=O)[nH]c1=O)Oc1ccccc1)C(=O)OCc1ccccc1 (stereo partly drawn)', 'not fulfilled');
